Each item that follows carries a reported IC50.
Biological target: HCV Protease (HCV NS3-4A) (Hepatitis C virus genotype 1a)
Sequence (P27958 1658-1711): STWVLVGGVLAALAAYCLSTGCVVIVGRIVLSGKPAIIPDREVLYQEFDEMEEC
Sequence (P27958 1027-1657): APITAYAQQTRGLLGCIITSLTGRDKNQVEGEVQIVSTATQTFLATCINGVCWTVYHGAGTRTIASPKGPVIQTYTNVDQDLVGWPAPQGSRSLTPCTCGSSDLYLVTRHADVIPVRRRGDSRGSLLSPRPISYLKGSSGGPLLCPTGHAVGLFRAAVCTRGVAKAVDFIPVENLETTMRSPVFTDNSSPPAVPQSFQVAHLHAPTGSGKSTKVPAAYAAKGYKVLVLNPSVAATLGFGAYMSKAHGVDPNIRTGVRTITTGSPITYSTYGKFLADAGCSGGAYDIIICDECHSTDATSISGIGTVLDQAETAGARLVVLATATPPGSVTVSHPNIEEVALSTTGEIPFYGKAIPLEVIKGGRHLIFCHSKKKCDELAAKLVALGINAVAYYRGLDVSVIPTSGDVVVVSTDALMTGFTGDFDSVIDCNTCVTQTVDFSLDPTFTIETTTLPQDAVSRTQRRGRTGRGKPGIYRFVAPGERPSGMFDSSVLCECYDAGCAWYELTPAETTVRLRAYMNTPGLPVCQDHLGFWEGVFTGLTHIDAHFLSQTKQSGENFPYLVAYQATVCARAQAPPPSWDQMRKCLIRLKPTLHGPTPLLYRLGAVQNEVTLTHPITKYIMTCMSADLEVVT

compound: CC[C@H]1C[C@@]1(NC(=O)C1C[C@@H]2CN1C(=O)[C@H](C(C)(C)C)NC(=O)OCC(C)(C)CCCCCOCc1cccc3c1CN(C3)C(=O)O2)C(=O)NS(=O)(=O)C1CC1 (some centres unmarked) [Compound 15av]
tested.system: HCV Protease (HCV NS3-4A) (Hepatitis C virus genotype 1a)
IC50: 5.1 to 50 nM
--
compound: CCC1CC1(NC(=O)C1CC2CN1C(=O)C(C(C)(C)C)NC(=O)OCC(C)(C)CCCCCOC(=O)c1ccc3c(c1)CN(C3)C(=O)O2)C(=O)NS(=O)(=O)C1CC1 (centres unmarked) [Compound 15bs]
tested.system: HCV Protease (HCV NS3-4A) (Hepatitis C virus genotype 1a)
IC50: 51 to 300 nM
--
compound: CC[C@H]1C[C@@]1(NC(=O)C1C[C@@H]2CN1C(=O)[C@H](C(C)(C)C)NC(=O)OCC/C=C/COc1cccc3c1CN(C3)C(=O)O2)C(=O)NS(=O)(=O)C1CC1 (some centres unmarked) [Compound 15ae]
tested.system: HCV Protease (HCV NS3-4A) (Hepatitis C virus genotype 1a)
IC50: 0.1 to 5 nM
--
compound: CC[C@H]1C[C@@]1(NC(=O)C1C[C@@H]2CN1C(=O)[C@H](C(C)(C)C)NC(=O)OCCC/C=C/CSc1cccc3c1CN(C3)C(=O)O2)C(=O)NS(=O)(=O)C1CC1 (some centres unmarked) [Compound 15cc]
tested.system: HCV Protease (HCV NS3-4A) (Hepatitis C virus genotype 1a)
IC50: 0.1 to 5 nM
--
compound: C=CC1CC1(NC(=O)C1CC2CN1C(=O)C(C(C)(C)C)NC(=O)OCCCC=Cc1c3c(cc4c1OCO4)CN(C3)C(=O)O2)C(=O)NS(=O)(=O)C1CC1 (centres unmarked) [Compound 15bt]
tested.system: HCV Protease (HCV NS3-4A) (Hepatitis C virus genotype 1a)
IC50: 0.1 to 5 nM

----------
Here's what we have: pIC50 numbers for HCV Protease (HCV NS3-4A) (Hepatitis C virus genotype 1a).
pIC50: −log10 of the molar value.

compound: CC[C@H]1C[C@@]1(NC(=O)C1C[C@@H]2CN1C(=O)[C@H](C(C)(C)C)NC(=O)OCCCCCCNC(=O)c1cccc3c1CN(C3)C(=O)O2)C(=O)NS(=O)(=O)C1CC1 (stereo partly shown) [Compound 15bb]
pIC50: 7.30 to 8.29
--
compound: C=CC1CC1(NC(=O)C1CC2CN1C(=O)C(C(C)(C)C)NC(=O)OCC(C)(C)CC=CCOc1c(OC)ccc3c1CN(C3)C(=O)O2)C(=O)NS(=O)(=O)C1CC1 (stereo not shown) [Compound 15p]
pIC50: 8.30 to 10.00
--
compound: CC[C@H]1C[C@@]1(NC(=O)C1C[C@@H]2CN1C(=O)[C@H](C(C)(C)C)NC(=O)OCCCCCCCOc1cccc3c1CN(C3)C(=O)O2)C(=O)NS(=O)(=O)C1CC1 (stereo partly shown) [Compound 15x]
pIC50: 8.30 to 10.00
--
compound: CC[C@H]1C[C@@]1(NC(=O)C1C[C@@H]2CN1C(=O)[C@H](C(C)(C)C)NC(=O)OCCCCCCOCc1cccc3c1CN(C3)C(=O)O2)C(=O)NS(=O)(=O)C1CC1 (stereo partly shown) [Compound 15aw]
pIC50: 7.30 to 8.29
--
compound: CCC1CC1(NC(=O)C1CC2CN1C(=O)C(C(C)(C)C)NC(=O)OCCCCCCCCOc1cccc3c1CN(C3)C(=O)O2)C(=O)NS(=O)(=O)C1CC1 (stereo not shown) [Compound 15y]
pIC50: 7.30 to 8.29
--
compound: CC[C@H]1C[C@@]1(NC(=O)C1C[C@@H]2CN1C(=O)[C@H](C(C)(C)C)NC(=O)OCC(C)(C)OC/C=C/COc1cccc3c1CN(C3)C(=O)O2)C(=O)NS(=O)(=O)C1CC1 (stereo partly shown) [Compound 15aj]
pIC50: 8.30 to 10.00
--
compound: CC[C@H]1C[C@@]1(NC(=O)C1C[C@@H]2CN1C(=O)[C@H](C(C)(C)C)NC(=O)OCC(C)(C)CCCCOC(=O)c1ccc3c(c1)CN(C3)C(=O)O2)C(=O)NS(=O)(=O)C1CC1 (stereo partly shown) [Compound 15br]
pIC50: 6.52 to 7.29
--
compound: CC[C@H]1C[C@@]1(NC(=O)C1C[C@@H]2CN1C(=O)[C@H](C(C)(C)C)NC(=O)OCC1(CCCCOc3cccc4c3CN(C4)C(=O)O2)CC1)C(=O)NS(=O)(=O)C1CC1 (stereo partly shown) [Compound 15e]
pIC50: 8.30 to 10.00
--
compound: CC[C@H]1C[C@@]1(NC(=O)C1C[C@@H]2CN1C(=O)[C@H](C(C)(C)C)NC(=O)OCCCC/C=C/COc1ccc3c(c1)CN(C3)C(=O)O2)C(=O)NS(=O)(=O)C1CC1 (stereo partly shown) [Compound 15bg]
pIC50: 8.30 to 10.00
--
compound: CC[C@H]1C[C@@]1(NC(=O)C1C[C@@H]2CN1C(=O)[C@H](C(C)(C)C)NC(=O)OCC1(C/C=C/CSc3cccc4c3CN(C4)C(=O)O2)CC1)C(=O)NS(=O)(=O)C1CC1 (stereo partly shown) [Compound 15ca]
pIC50: 8.30 to 10.00
